# TARGET OR TEST SYSTEM: TAAR1 (Homo sapiens, UniProt Q96RJ0)
# Sequence (Q96RJ0 whole entry): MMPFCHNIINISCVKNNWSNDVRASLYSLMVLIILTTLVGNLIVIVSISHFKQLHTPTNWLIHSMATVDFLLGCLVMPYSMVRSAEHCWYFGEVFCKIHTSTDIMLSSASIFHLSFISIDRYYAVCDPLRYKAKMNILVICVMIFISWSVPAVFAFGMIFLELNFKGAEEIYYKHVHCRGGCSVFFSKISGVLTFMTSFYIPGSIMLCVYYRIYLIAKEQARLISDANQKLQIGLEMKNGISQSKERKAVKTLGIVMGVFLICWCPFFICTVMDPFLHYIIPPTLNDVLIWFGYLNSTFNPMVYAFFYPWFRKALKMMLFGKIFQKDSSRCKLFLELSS
# PROCEDURE SUMMARY: BRET cAMP biosensor (EPAC) assay of TAAR1 agonistic activity in transiently transfected HEK-293 cells
# MEASUREMENT SETUP: TAAR1 agonistic activity, concentration-response
EXPERIMENTAL ENDPOINT: pEC50
Keep it numeric: pEC50 is minus log10 of the concentration in mol/L.

Below, each entry is followed by its recorded pEC50 result.
Lab note: measured pEC50 of "Cl.NCCC1CCN(C(=O)Nc2ccccc2)CC1" was 6.29

Lab note: measured pEC50 of "Cc1ccc(C)c(NC(=O)N2CCC(CCN)CC2)c1.Cl" was 7.38

Lab note: measured pEC50 of "COc1ccc(C)cc1NC(=O)N1CCC(CCN)CC1" was 5.72

Lab note: measured pEC50 of "Cl.NCCC1CCN(C(=O)Nc2cccc(C(F)(F)F)c2)CC1" was 7.46

Lab note: measured pEC50 of "Cc1cccc(NC(=O)N2CCC(CCN)CC2)c1.Cl" was 7.28

***
Lab note: measured pEC50 of "Cl.NCCC1CCN(C(=O)Nc2ccc(F)cc2)CC1" was 6.69

Lab note: measured pEC50 of "Cc1ccc(NC(=O)N2CCC(CCN)CC2)cc1C.Cl" was 7.48

Lab note: measured pEC50 of "Cc1cccc(NC(=O)N2CCC(CCN)CC2)c1C" was 6.04

Lab note: measured pEC50 of "Cc1cc(C)cc(NC(=O)N2CCC(CCN)CC2)c1.Cl" was 6.95

Lab note: measured pEC50 of "Cl.NCCC1CCN(C(=O)Nc2cc(F)ccc2F)CC1" was 6.56
